Test system: S. aureus (SA) ATCC 25913
Assay: Agar well diffusion, S. aureus
Format: cell-based, Staphylococcus aureus
Conditions: average of triplicate
assay_metric: Inhibition Zone SA ATCC 25913 (mm)
Supply the numeric figure in mm, leaving out any unit text.

Solved cases below.
COc1ccc(-c2nc(Nc3ccc(S(N)(=O)=O)cc3)c3cc(I)ccc3n2)cc1	18
O=C(O)c1cn(C2CC2)c2cc(N3CCNCC3)c(F)cc2c1=O [Ciprofloxacin, reference compound]	21
COc1ccc(-c2nc(Nc3ccc(S(=O)(=O)Nc4nccs4)cc3)c3cc(I)ccc3n2)cc1	16
COc1ccc(-c2nc(Nc3ccc(S(=O)(=O)Nc4nccs4)cc3)c3cc(I)ccc3n2)cc1OC	14
O=S(=O)(Nc1nccs1)c1ccc(Nc2nc(-c3ccccc3)nc3ccc(I)cc23)cc1	22

Kindly note the recorded Inhibition Zone SA ATCC 25913 for NS(=O)(=O)c1ccc(Nc2ncnc3ccc(I)cc23)cc1 , which is 14

----------
Molecular target: carbonic anhydrase XII (CAXII) (Bos taurus, UniProt P00921)
Construct: purified bovine erythrocyte CA-II; from tissue; host or cells: bovine erythrocytes
Sequence (P00921 2-260): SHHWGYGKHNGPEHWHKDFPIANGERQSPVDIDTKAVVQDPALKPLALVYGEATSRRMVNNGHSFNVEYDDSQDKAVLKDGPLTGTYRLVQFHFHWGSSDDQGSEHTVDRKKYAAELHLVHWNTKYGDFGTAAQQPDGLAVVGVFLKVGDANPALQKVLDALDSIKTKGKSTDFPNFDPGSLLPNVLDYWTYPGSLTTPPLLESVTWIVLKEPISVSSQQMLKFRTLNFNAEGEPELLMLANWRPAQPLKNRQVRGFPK
Assay: Carbonic anhydrase (CAXII) inhibition, 4-nitrophenyl acetate, 96-well plate
Type: biochemical, bovine
Conditions: read-out: CAXII inhibitory activity (IC50)
assay_metric: pIC50
Remember, pIC50 is on a log scale: it is -log10 of the molar concentration.

Solved cases below.
NS(=O)(=O)c1ccc(Nc2ncnc3ccc(I)cc23)cc1	5.02
COc1ccc(-c2nc(Nc3ccc(S(=O)(=O)Nc4nccs4)cc3)c3cc(I)ccc3n2)cc1	5.09

Then this molecule:
Kindly note the recorded pIC50 for O=S(=O)(Nc1nccs1)c1ccc(Nc2nc(-c3ccccc3)nc3ccc(I)cc23)cc1 , which is 5.43

----------
C. albicans (CA) ATCC 14053: reported MIC for various compounds.
Supply the numeric figure in µg/mL, leaving out any unit text.

COc1ccc(-c2nc(Nc3ccc(S(=O)(=O)Nc4nccs4)cc3)c3cc(I)ccc3n2)cc1	8
NS(=O)(=O)c1ccc(Nc2ncnc3ccc(I)cc23)cc1	16
O=S(=O)(Nc1nccs1)c1ccc(Nc2nc(-c3ccccc3)nc3ccc(I)cc23)cc1	4
COc1ccc(-c2nc(Nc3ccc(S(=O)(=O)Nc4nccs4)cc3)c3cc(I)ccc3n2)cc1OC	16
COc1ccc(-c2nc(Nc3ccc(S(N)(=O)=O)cc3)c3cc(I)ccc3n2)cc1	16

Then this compound:
Entry OC(Cn1cncn1)(Cn1cncn1)c1ccc(F)cc1F [Fluconazole, reference compound] ; assay system C. albicans (CA) ATCC 14053; MIC recorded at 1

----------
Tested on: MIA-PaCa-2 (human pancreatic adenocarcinoma)
Assay: MTT cytotoxicity assay, MIA PaCa2
Type: cell-based
Details: 96 h continuous exposure, read-out: In vitro antitumor activities (IC50) MIA PaCa2 (Pancreatic)
pIC50: −log10 of the molar value.
Rule: pIC50 under 5 gives Condition not met, otherwise Condition met.

For orientation, consider the following solved cases.
COc1ccc(-c2nc(Nc3ccc(S(=O)(=O)Nc4nccs4)cc3)c3cc(I)ccc3n2)cc1OC [Compound 3e]	Condition not met
COc1cccc2c1C(=O)c1c(O)c3c(c(O)c1C2=O)C[C@@](O)(C(=O)CO)C[C@@H]3O[C@H]1C[C@H](N)[C@H](O)[C@H](C)O1 [Doxorubicin, reference compound]	Condition met
COc1ccc(-c2nc(Nc3ccc(S(=O)(=O)Nc4nccs4)cc3)c3cc(I)ccc3n2)cc1 [Compound 3d]	Condition met
O=S(=O)(Nc1nccs1)c1ccc(Nc2nc(-c3ccccc3)nc3ccc(I)cc23)cc1 [Compound 3c]	Condition met

State whether the measured pIC50 reaches 5, counting equality as reaching it, for NS(=O)(=O)c1ccc(Nc2ncnc3ccc(I)cc23)cc1 [Compound 3a]
Condition not met

----------
Property: IC50; scope: individual compounds
Tested on: MDA MB231 (triple negative human breast cancer)
Test: MTT cytotoxicity assay, MDA MB231
Type: cell-based
Details: MDA-MB-231, 96 h continuous exposure, read-out: In vitro antitumor activities (IC50) MDA MB231 (Breast)
Supply the numeric figure in µM, leaving out any unit text.

Solved cases below.
COc1ccc(-c2nc(Nc3ccc(S(N)(=O)=O)cc3)c3cc(I)ccc3n2)cc1 [Compound 3b]	7.3
NS(=O)(=O)c1ccc(Nc2ncnc3ccc(I)cc23)cc1 [Compound 3a]	12
O=S(=O)(Nc1nccs1)c1ccc(Nc2nc(-c3ccccc3)nc3ccc(I)cc23)cc1 [Compound 3c]	6.4
COc1cccc2c1C(=O)c1c(O)c3c(c(O)c1C2=O)C[C@@](O)(C(=O)CO)C[C@@H]3O[C@H]1C[C@H](N)[C@H](O)[C@H](C)O1 [Doxorubicin, reference compound]	2.7

Then this compound:
Kindly note the recorded IC50 for COc1ccc(-c2nc(Nc3ccc(S(=O)(=O)Nc4nccs4)cc3)c3cc(I)ccc3n2)cc1 [Compound 3d] , which is 6.4

----------
Tested on: P. aeruginosa (PA) ATCC 27853
Test: Agar well diffusion, P. aeruginosa
Assay type: cell-based, Pseudomonas aeruginosa
Conditions: average of triplicate
Procedure: The five newly synthesized compounds were first qualitatively evaluated for antibacterial and antifungal activities using Muller-Hinton agar medium (MHA) through the agar well diffusion technique as previously described (Balouiri et al. [2016]). […] The antifungal activity was evaluated against C. albicans (CA) ATCC 14053 (CLSI [2021]). […]
Property: Inhibition Zone PA ATCC 27853; scope: individual molecules
Supply the numeric figure in mm, leaving out any unit text.

COc1ccc(-c2nc(Nc3ccc(S(=O)(=O)Nc4nccs4)cc3)c3cc(I)ccc3n2)cc1	12

Entry NS(=O)(=O)c1ccc(Nc2ncnc3ccc(I)cc23)cc1 ; assay system P. aeruginosa (PA) ATCC 27853; Inhibition Zone PA ATCC 27853 recorded at 0

Entry O=C(O)c1cn(C2CC2)c2cc(N3CCNCC3)c(F)cc2c1=O [Ciprofloxacin, reference compound] ; assay system P. aeruginosa (PA) ATCC 27853; Inhibition Zone PA ATCC 27853 recorded at 25

Entry COc1ccc(-c2nc(Nc3ccc(S(=O)(=O)Nc4nccs4)cc3)c3cc(I)ccc3n2)cc1OC ; assay system P. aeruginosa (PA) ATCC 27853; Inhibition Zone PA ATCC 27853 recorded at 10

Entry COc1ccc(-c2nc(Nc3ccc(S(N)(=O)=O)cc3)c3cc(I)ccc3n2)cc1 ; assay system P. aeruginosa (PA) ATCC 27853; Inhibition Zone PA ATCC 27853 recorded at 10

Entry O=S(=O)(Nc1nccs1)c1ccc(Nc2nc(-c3ccccc3)nc3ccc(I)cc23)cc1 ; assay system P. aeruginosa (PA) ATCC 27853; Inhibition Zone PA ATCC 27853 recorded at 12

----------
Test system: P. aeruginosa (PA) ATCC 27853
Test: Broth microdilution MIC, P. aeruginosa
Format: cell-based
Conditions: Pseudomonas aeruginosa, ATCC27853, CLSI
assay_metric: MIC (µg/mL)
Supply the numeric figure in µg/mL, leaving out any unit text.

COc1ccc(-c2nc(Nc3ccc(S(=O)(=O)Nc4nccs4)cc3)c3cc(I)ccc3n2)cc1OC [Compound 3e]	32
COc1ccc(-c2nc(Nc3ccc(S(=O)(=O)Nc4nccs4)cc3)c3cc(I)ccc3n2)cc1 [Compound 3d]	32
COc1ccc(-c2nc(Nc3ccc(S(N)(=O)=O)cc3)c3cc(I)ccc3n2)cc1 [Compound 3b]	32

Then this molecule:
Kindly note the recorded MIC for O=S(=O)(Nc1nccs1)c1ccc(Nc2nc(-c3ccccc3)nc3ccc(I)cc23)cc1 [Compound 3c] , which is 16
